System: RPMI-8226 leukemia
Assay: NCI tumour cell line growth inhibition, 48 h; in the data active means GI50 below about 0.43 µM; inactive means the rest
Your reply should match one of these outcome classes. active, inactive

Prompt: Hey, what did the test say about COc1ccc(Nc2nc(NCCNc3ccnc4cc(Cl)ccc34)nc(N3CCOCC3)n2)cc1 ?
Completion: inactive

Prompt: Hey, what did the test say about Cc1ccc2c(C(C[N+](=O)[O-])c3ccccc3)c(-c3ccccc3)[nH]c2c1 (configuration not stated) ?
Completion: inactive

Prompt: Hey, what did the test say about Cc1c(Cn2c(C)nc3c(C(=O)O)cc(N4CCOCC4)cc32)cccc1C(F)(F)F ?
Completion: inactive

Prompt: Hey, what did the test say about COc1ccccc1C#Cc1ccccc1C#Cc1ccc(OCCCCCCOc2ccccc2C#Cc2ccccc2C#Cc2ccccc2OC)cc1 ?
Completion: inactive

Prompt: Hey, what did the test say about NC(=O)c1cc(N2CC2)c([N+](=O)[O-])cc1[N+](=O)[O-] ?
Completion: inactive

Prompt: Hey, what did the test say about CC(=O)O.CN1[CH-]N(Cc2ccc(C#N)cc2)c2ccccc21.[Ag+] ?
Completion: inactive

Prompt: Hey, what did the test say about CC1=C([Te]c2ccccc2)C(=O)c2ccccc2C1=O ?
Completion: active

Sourced from PubChem BioAssay (NCI)
